src = PubChem BioAssay AID1159580

assay: chemical genetic growth profiling, strain panel (AID 1159580);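 further: tested at 20 µM; growth read once vehicle control cultures reached saturation at 30 °C; lower values mean less growth of the strain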; settings: S. cerevisiae deletion strains, growth OD, locus YEL003W, strain gim4
About 2,000 (36%) of roughly 5,500 compounds were called active. Another 18% or so got no clear call; they are omitted. No stated cut-off is given here; in the data, active means normalized growth mostly below about 0.91 (no sharp cut-off); inconclusive means no clear call, values can overlap the other calls; inactive means mostly above about 0.92. This is one part of the list.
Give your call using only these classes: active, inactive

[ask] Called result for "COc1cc(C(=O)N2CCOCC2)cc(OC)c1OC"
[reply] inactive

[ask] Short answer needed: outcome of this test for CC(=O)N1CCN(c2ccc(OCC3CO[C@](Cn4ccnc4)(c4ccc(Cl)cc4Cl)O3)cc2)CC1 (stereo not given in full) ?
[reply] active

[ask] Hello, I am checking results. What call was entered for "CC(=O)O[C@@H]1c2c(ccc3ccc(=O)oc23)OC(C)(C)[C@@H]1OC(=O)CC(C)C" ?
[reply] inactive

[ask] Recorded call for CC12CCC(=O)C=C1CCc1ccccc12 (stereo not given) ?
[reply] inactive

[ask] Look up the recorded call for "COc1ccccc1N1CCN(CCCNc2cc(=O)n(C)c(=O)n2C)CC1" in this test.
[reply] inactive
